- Organism: Homo sapiens
- PROTOCOL SUMMARY: Selectivity index, ratio of IC50 for human HDAC8 to IC50 for human HDAC6
ENDPOINT LABEL: Ratio IC50
Keep the answer to the number alone.

[in] Quick one: Ratio IC50 for COc1ccc(C(=O)c2ccc3c(ccn3Cc3ccc(C(=O)NO)cc3)c2)cc1OC ?
[out] 48.8

[in] Quick one: Ratio IC50 for COc1ccc(C(=O)c2ccc3c(ccn3Cc3ccc(/C=C/C(=O)NO)cc3)c2)cc1 ?
[out] 26

[in] Quick one: Ratio IC50 for Cc1ccc(C(=O)c2ccc3c(ccn3Cc3ccc(C(=O)NO)cc3)c2)cc1 ?
[out] 125

[in] Quick one: Ratio IC50 for COc1ccc(C(=O)c2ccc3c(ccn3S(=O)(=O)c3ccc(/C=C/C(=O)NO)cc3)c2)cc1 ?
[out] 11.8

[in] Quick one: Ratio IC50 for COc1ccc(C(=O)c2ccc3c(ccn3S(=O)(=O)c3cccc(/C=C/C(=O)NO)c3)c2)cc1OC ?
[out] 1.2

[in] Quick one: Ratio IC50 for Cc1ccc(C(=O)c2ccc3c(ccn3S(=O)(=O)c3cccc(/C=C/C(=O)NO)c3)c2)cc1 ?
[out] 1.6

[in] Quick one: Ratio IC50 for O=C(NO)c1ccc(Cn2ccc3cc(C(=O)c4ccc(Cl)cc4)ccc32)cc1 ?
[out] 158

[in] Quick one: Ratio IC50 for COc1ccc(C(=O)c2ccc3c(ccn3S(=O)(=O)c3cccc(/C=C/C(=O)NO)c3)c2)cc1 ?
[out] 1.1

[in] Quick one: Ratio IC50 for COc1ccc(C(=O)c2ccc3c(ccn3Cc3ccc(C(=O)NO)cc3)c2)cc1 ?
[out] 165

[in] Quick one: Ratio IC50 for COc1cccc(C(=O)c2ccc3c(ccn3Cc3ccc(C(=O)NO)cc3)c2)c1 ?
[out] 68.3

[in] Quick one: Ratio IC50 for COc1cccc(C(=O)c2ccc3c(ccn3S(=O)(=O)c3cccc(/C=C/C(=O)NO)c3)c2)c1 ?
[out] 1.9

[in] Quick one: Ratio IC50 for O=C(/C=C/c1cccc(S(=O)(=O)n2ccc3cc(C(=O)c4ccc(F)cc4)ccc32)c1)NO ?
[out] 1.9

[in] Quick one: Ratio IC50 for COc1cc(C(=O)c2ccc3c(ccn3S(=O)(=O)c3ccc(/C=C/C(=O)NO)cc3)c2)cc(OC)c1OC ?
[out] 5.5

[in] Quick one: Ratio IC50 for COc1cc(C(=O)c2ccc3c(ccn3Cc3ccc(/C=C/C(=O)NO)cc3)c2)cc(OC)c1OC ?
[out] 15.2

[in] Quick one: Ratio IC50 for COc1cc(C(=O)c2ccc3c(ccn3S(=O)(=O)c3cccc(/C=C/C(=O)NO)c3)c2)cc(OC)c1OC ?
[out] 2.2

[in] Quick one: Ratio IC50 for O=C(NO)c1ccc(Cn2ccc3cc(C(=O)c4ccc(F)cc4)ccc32)cc1 ?
[out] 134
